From: PubChem BioAssay

system: Human papillomavirus type 1a E7 protein (residues 1-88); assay: HPV1a E7 small-molecule binders, primary screen, biochemical, small-molecule microarray, residues 1-88, 635 nm (AID 1129); details: small-molecule microarray binding, fluorescence 635 nm; higher = more signal
Experimental Endpoint: composite z-score
Form: value (number only, do not type unit).

Worked set:
COc1ccc([Si](C)(C)[C@H]2[C@H](CCO)O[C@@]3(C(=O)N(Cc4cccc(N5C(=O)c6cccc7cccc5c67)c4)c4ccccc43)[C@@H]2C)cc1: 0.586
C=CCNC(=O)[C@@H]1[C@H]2C(=O)O[C@H](c3ccccc3)[C@H](c3ccccc3)N2[C@H](c2ccccc2OCCO)[C@@]12C(=O)N(C(=O)OCCOC)c1ccc(C#CCC(C(=O)OC)C(=O)OC)cc12: 1.23

q: Sample C[C@H]1C2[C@H](Cc3ccccc3)NC(=O)[C@]23C(=O)N[C@H](Cc2ccccc2)C(=O)N[C@H](Cc2ccccc2)C(=O)NC/C=C/CCC/C=C/C3[C@@H]2O[C@]12C (some centres not stated) — what was its composite z-score?
a: 1.18

q: What does the data say about its composite z-score? Entry: CN1C(=O)C2C=CC(C(O)c3ccc(Br)cc3)N(Nc3ccccc3)C2C1=O (configuration not stated)
a: -0.426

q: Requested field: composite z-score. Item: "C=C[C@H](C)[C@H](O)c1ccc(OCCO)cc1"
a: -1.55

q: So what does the record say about composite z-score for "COC(=O)[C@@]1(Cc2ccc(OC)cc2)[C@H]2c3cc(C(=O)N(C)C)n(Cc4ccc(OC)c(OC)c4)c3C[C@H]2CN1C(=O)c1ccccc1" ?
a: 1.25

q: I am curious: what composite z-score value has been reported for "O=C1O[C@H](c2ccccc2)[C@H](c2ccccc2)N2[C@H]1[C@@H](C(=O)NC[C@H](O)c1ccccc1)[C@]1(C(=O)Nc3ccc(C#CC4(O)CCCCCC4)cc31)[C@H]2c1ccccc1OCCO" ?
a: 1.19

q: Bench note: what composite z-score did O=C1OCC=C[C@H]2OC34C=CCN(c5ccc(Cl)cc5)C(=O)[C@H]3N(CCCO)C(=O)[C@@H]4[C@@H]12 (some centres not stated) show?
a: -0.799

q: For the compound shown here, "NC(=O)NCC#Cc1ccc2c(c1)[C@]1(C(=O)N2)[C@H](C(=O)NC[C@H](O)c2ccccc2)[C@H]2C(=O)O[C@H](c3ccccc3)[C@H](c3ccccc3)N2[C@@H]1c1ccccc1OCCO" , give the reported composite z-score.
a: 1.18
